target: mouse IDO1 (Mus musculus); construct: The murine PANC02 pancreatic ductal adenocarcinoma cell line was routinely maintained in DMEM media; endogenous in cells; experiment: Mouse IDO1 cell-based assay (PANC02 cells, mouse IFNgamma-induced, N-formylkynurenine/L-tryptophan by RFMS); details: 30 ng/mL mouse IFNgamma, 48 hours
Sequence (P28776 whole entry): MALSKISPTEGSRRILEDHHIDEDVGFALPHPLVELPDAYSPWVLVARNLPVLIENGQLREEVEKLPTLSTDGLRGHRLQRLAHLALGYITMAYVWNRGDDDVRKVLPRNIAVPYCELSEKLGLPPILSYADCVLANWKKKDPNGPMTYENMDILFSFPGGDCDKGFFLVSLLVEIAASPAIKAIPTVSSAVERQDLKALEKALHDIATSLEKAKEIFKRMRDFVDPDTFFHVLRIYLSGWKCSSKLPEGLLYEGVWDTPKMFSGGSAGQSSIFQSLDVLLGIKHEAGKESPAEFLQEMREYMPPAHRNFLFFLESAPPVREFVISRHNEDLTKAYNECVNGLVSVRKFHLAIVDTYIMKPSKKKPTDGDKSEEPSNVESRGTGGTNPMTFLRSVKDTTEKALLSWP

compound | subject_of_test | IC50
CCC(NC(=O)c1ccc(Cl)cc1)[C@H]1[C@@H]2C[C@@H](n3cnc4ccc(F)cc43)C[C@@H]21 (stereo partly shown) [Compound 125] | mouse IDO1 (Mus musculus) | < 0.5 µM
CCC(NC(=O)c1ccc(Cl)cc1)[C@H]1[C@@H]2C[C@@H](n3cnc4ccncc43)C[C@@H]21 (stereo partly shown) [Compound 197] | mouse IDO1 (Mus musculus) | > 5 µM
CCC(NC(=O)c1ccc(Cl)cc1)[C@H]1[C@@H]2C[C@@H](n3cc(N)nn3)C[C@@H]21 (stereo partly shown) [Compound 239] | mouse IDO1 (Mus musculus) | > 5 µM
CCC(NC(=O)c1ccc(Cl)cc1)[C@H]1[C@@H]2C[C@@H](n3cc(C4CN(C(C)=O)C4)nn3)C[C@@H]21 (stereo partly shown) [Compound 257] | mouse IDO1 (Mus musculus) | > 5 µM
CCC(NC(=O)c1ccc(Cl)cc1)[C@H]1[C@@H]2C[C@@H](NC(C(=O)NC)c3ccccc3)C[C@@H]21 (stereo partly shown) [Compound 224] | mouse IDO1 (Mus musculus) | > 5 µM
CCC(NC(=O)c1ccc(Cl)cc1)[C@H]1[C@@H]2C[C@@H](Nc3ncc(F)cc3[N+](=O)[O-])C[C@@H]21 (stereo partly shown) [Compound 236] | mouse IDO1 (Mus musculus) | 0.5 to 2 µM
O=C(Nc1ccc(Cl)cc1)[C@H]1[C@@H]2CN(c3ncnc4ccc(F)cc34)C[C@@H]21 [Compound 252] | mouse IDO1 (Mus musculus) | 2 to 5 µM

* * *

# pIC50 per record follows
target: mouse IDO1 (Mus musculus); construct: The murine PANC02 pancreatic ductal adenocarcinoma cell line was routinely maintained in DMEM media; endogenous in cells; assay: Mouse IDO1 cell-based assay (PANC02 cells, mouse IFNgamma-induced, N-formylkynurenine/L-tryptophan by RFMS); settings: 30 ng/mL mouse IFNgamma, 48 hours
pIC50: −log10 of the molar value.
assay_readout: pIC50

molecule | subject_of_test | observed_result
CCC(NC(=O)c1ccc(Cl)cc1)[C@@H]1[C@H]2C=C(c3cncc(C(F)(F)F)c3)C[C@H]21 (stereo partly shown) [Compound 254] | mouse IDO1 (Mus musculus) | > 6.30
CCC(NC(=O)c1ccc(Cl)cc1)[C@H]1[C@@H]2C[C@@H](Nc3ccccn3)C[C@@H]21 (stereo partly shown) [Compound 226] | mouse IDO1 (Mus musculus) | > 6.30
CCC(NC(=O)c1ccc(Cl)cc1)[C@H]1[C@@H]2C[C@H](NC(=O)c3ncccc3F)C[C@@H]21 (stereo partly shown) [Compound 220] | mouse IDO1 (Mus musculus) | > 6.30
CCC(NC(=O)c1ccc(Cl)cc1)[C@H]1[C@@H]2C[C@@H](n3cc(C4CNC4)nn3)C[C@@H]21 (stereo partly shown) [Compound 237] | mouse IDO1 (Mus musculus) | < 5.30

* * *

This section presents compounds with their documented pIC50 values.
molecular target: mouse IDO1 (Mus musculus); construct: The murine PANC02 pancreatic ductal adenocarcinoma cell line was routinely maintained in DMEM media; endogenous in cells; assay: Mouse IDO1 cell-based assay (PANC02 cells, mouse IFNgamma-induced, N-formylkynurenine/L-tryptophan by RFMS); conditions: 30 ng/mL mouse IFNgamma, 48 hours
pIC50: −log10 of the molar value.
assay_readout: pIC50

compound | assay_readout | observed_result
CCC(NC(=O)c1ccc(Cl)cc1)[C@H]1[C@@H]2C[C@@H](Oc3nc4cc(F)ccc4[nH]3)C[C@@H]21 (stereo partly shown) | pIC50 | 5.70 to 6.30
CCC(NC(=O)c1ccc(Cl)cc1)[C@H]1[C@@H]2C[C@@H](Nc3cc(F)cc(F)c3[N+](=O)[O-])C[C@@H]21 (stereo partly shown) | pIC50 | 5.70 to 6.30
CCC(NC(=O)c1ccc(Cl)cc1)[C@H]1[C@@H]2C[C@@H](n3nc4cc(F)cc(F)c4n3)C[C@@H]21 (stereo partly shown) | pIC50 | 5.70 to 6.30
CCC(NC(=O)c1ccc(Cl)cc1)[C@H]1[C@@H]2C[C@@H](NC(=O)c3cncc(Cl)n3)C[C@@H]21 (stereo partly shown) | pIC50 | 5.30 to 5.70
CCC(NC(=O)c1ccc(Cl)cc1)[C@H]1[C@@H]2C[C@@H](n3cc4c(F)cccc4n3)C[C@@H]21 (stereo partly shown) | pIC50 | > 6.30
CCC(NC(=O)c1ccc(Cl)cc1)[C@H]1[C@@H]2C[C@@H](NC(C(=O)O)c3ccccc3)C[C@@H]21 (stereo partly shown) | pIC50 | < 5.30
CCC(NC(=O)c1ccc(Cl)cc1)[C@H]1[C@@H]2C[C@@H](NC(=O)c3nccc(C(F)(F)F)c3Cl)C[C@@H]21 (stereo partly shown) | pIC50 | 5.70 to 6.30

Just for reference, patent US11173145B2 is where these values come from.
